- PROCEDURE TEXT: qHTS assay to identify small molecule antagonists of the retinoic acid receptor (RAR) signaling pathway (AID 1159552; also: nearly all actives have a fitted effect of over 50% in size)
- EXPERIMENTAL CONTEXT: C3RL4 RARE luciferase reporter, retinol-stimulated, 6 h; series mostly up to 92.4 µM
Results filed as inconclusive are left out. Active and inactive are the calls of the source. Calls follow the shape of the dose curve; as a rule, active = well fitted inhibition curve with a large enough effect in the repeat runs; inconclusive = weak or mixed curves, or effect the other way; inactive = no such curve, though single readings can be large or run the other way.
I would appreciate it if you answered using one of these outcomes: T = active, F = inactive

Observe how each entry below is paired with its result.
compound=Cc1ccc(N)cc1O assigned_category=F
compound="O=C1NC2CCCCN2C12CCN(CCCN1c3ccccc3CCc3ccc(Cl)cc31)CC2 (stereo not given)" assigned_category=T

Input: Outcome logged for CCCCCCCOC(=O)c1ccccc1C(=O)OCCCCCCC in this assay:
Output: F

Input: For C#CC(O)CCC (stereo not given) , what call appears in the results of this test?
Output: F

Input: In this assay, the call recorded for NC1(c2ccc(-c3nc4ccn5c(=O)[nH]nc5c4cc3-c3ccccc3)cc2)CCC1 was what?
Output: T

---

- PROCEDURE TEXT: qHTS assay to identify small molecule agonists of the retinoic acid receptor (RAR) signaling pathway (AID 1159553); also: % is scaled to controls: 0 for no effect and ±100 for the full control effect
- EXPERIMENTAL CONTEXT: C3RL4 RARE luciferase reporter, agonist, 6 h; series mostly up to 73.3 µM
Records with an inconclusive call do not appear. Calls of active or inactive are those of the source. The call rests on the fitted dose curve; in most records, active means well fitted activation curve with a large enough effect in the repeat runs; inconclusive means weak or mixed curves, or effect the other way; inactive means no such curve, though single readings can be large or run the other way.
REPORTED ENDPOINT: outcome

// below: answered molecules
molecule=COC(=O)[C@]1(C)CCC[C@@]2(C)[C@H]1CC=C1C=C(C(C)C)CC[C@@H]12 reported_endpoint=outcome measured=inactive
molecule="COc1ccccc1OCCNCC(O)COc1cccc2[nH]c3ccccc3c12 (centres undefined)" reported_endpoint=outcome measured=inactive
molecule=C[C@@H]1CC[C@H]2C(C)(C)[C@H]3C[C@@]12CC[C@@]3(C)O reported_endpoint=outcome measured=inactive
molecule=CCCCCCCCCCCCCCCC reported_endpoint=outcome measured=inactive
molecule=C[C@H]1O[C@@H](O[C@H]2[C@@H](O)C[C@H](O[C@H]3[C@@H](O)C[C@H](O[C@H]4CC[C@@]5(C)[C@H](CC[C@@H]6[C@@H]5C[C@@H](O)[C@]5(C)[C@@H](C7=CC(=O)OC7)CC[C@]65O)C4)O[C@@H]3C)O[C@@H]2C)C[C@H](O)[C@@H]1O reported_endpoint=outcome measured=inactive

Lab note: measured outcome of c1ccc(Nc2cccc3ccccc23)cc1 was inactive

For this molecule ( O=C(NO)c1ccccc1 ), measured outcome is inactive

For Cc1c(C)n(Cc2ccccc2)c2ccc(C(=O)OCCN(C)C)cc12 the molecule record lists outcome as inactive

Field outcome (entry Oc1ccc(-c2ccc(O)cc2)cc1 ) reads inactive

---

- PROCEDURE TEXT: A CellTox Green Cytotoxicity Assay to monitor cytotoxicity in HEK293 cells - 0 hour (AID 1224869); also: % is scaled to controls: 0 for no effect and ±100 for the full control effect; nearly all actives have a fitted effect of over 50% in size
- EXPERIMENTAL CONTEXT: CellTox Green fluorescence; series mostly up to 76.8 µM
The source made the active and inactive calls. The call rests on the fitted dose curve; in most records, active means well fitted activation curve with a large enough effect in the repeat runs; inconclusive means weak or mixed curves; inactive means flat fitted curve, though single readings scatter.
REPORTED ENDPOINT: cytotoxicity

Example cases with answers are listed next.
compound=C=CC(=C)CC/C=C(\C)CCC=C(C)C measured="0.448% [at 15.8 µM] (inactive)"
compound=Oc1ccc(-c2ccc(O)cc2)cc1 measured=inactive
compound=CCCCCCCC/C=C\CCCCCCCC(=O)OCCOC(=O)CCCCCCC/C=C\CCCCCCCC measured=inactive
compound=CC(=O)Oc1ccc(C2(c3ccc(OC(C)=O)cc3)Oc3ccccc3NC2=O)cc1 measured=inactive
compound=CCOC(=O)N1CCC(=C2c3ccc(Cl)cc3CCc3cccnc32)CC1 measured=inactive

// sample CNC(=S)NN , its cytotoxicity was inactive

Short answer for OCCCS : cytotoxicity was inactive

Quick note, cytotoxicity for O=C(NO)c1ccccc1 landed at inactive

// sample C[Si](C)(C)Cl , its cytotoxicity was inactive

Field cytotoxicity (entry Oc1c(Br)cc(Br)c2cccnc12 ) reads inactive

Form: compound = CCOB(OCC)OCC ; cytotoxicity = inactive

Record CCCCCCCCCCCCCCCCCO , field cytotoxicity: -13.6% [at 15.8 µM] (inactive)

Reported cytotoxicity for O=C(O)Cc1ccc(OCCNC[C@H](O)c2ccccc2)cc1 was inactive

Noted for CCCCCCCCCCc1ccccc1 : its cytotoxicity reads inactive

Entry CC=O ; cytotoxicity = inactive

Looking up CN1[C@@H]2CC[C@H]1CC(OC(=O)C(CO)c1ccccc1)C2 (some centres undefined) , I found its cytotoxicity recorded as inactive

So, CCC1CCCCC1 ? Its cytotoxicity was inactive

Reported cytotoxicity ( CCN=C1C=CC(=C(c2ccc(N(CC)CC)cc2)c2ccc(N(CC)CC)cc2)c2ccccc21 ) = inactive

The measured cytotoxicity associated with C[C@@H]1CC[C@H]2C(C)(C)[C@H]3C[C@@]12CC[C@@]3(C)O reads inactive

---

- TGT: Cytochrome P450 3A4 (Homo sapiens)
- PROCEDURE TEXT: Cytochrome P450 Family 3 Subfamily A Member 4 (CYP3A4) small molecule antagonists: luciferase reporter qHTS assay (AID 1671201); also: nearly all actives have a fitted effect of over 50% in size
- EXPERIMENTAL CONTEXT: P450-Glo CYP3A4 enzyme, luciferin luminescence, 1 h; series mostly up to 115 µM
Records with an inconclusive call do not appear. The source made the active and inactive calls. Calls follow the shape of the dose curve; as a rule, active = well fitted inhibition curve with a large enough effect in the repeat runs; inconclusive = weak or mixed curves; inactive = no such curve, though single readings can be large or run the other way.
Choose the fitting class; nothing outside 1 for active, -1 for inactive is accepted.

mol_smiles=O=C(O)CC(=O)O assigned_category=-1
mol_smiles=O=C1Nc2ccc(Cl)cc2[C@@](C#CC2CC2)(C(F)(F)F)O1 assigned_category=-1
mol_smiles=CC(C)(C)c1cc(/C=C2\SC(=N)NC2=O)cc(C(C)(C)C)c1O assigned_category=1
mol_smiles=C=C[C@](C)(O)CC[C@@H]1[C@@]2(C)CCCC(C)(C)[C@@H]2CC[C@@]1(C)O assigned_category=1
mol_smiles=O=C(O)Cc1ccc(OCCNC[C@H](O)c2ccccc2)cc1 assigned_category=-1
mol_smiles=Cc1cc2c(C(C)C)c(O)c(O)c(C=O)c2c(O)c1-c1c(C)cc2c(C(C)C)c(O)c(O)c(C=O)c2c1O assigned_category=-1

Continue with the compound presented below.
Input: Entry C/C=C/CO : call = ?
Output: -1

---

- PROCEDURE TEXT: qHTS assay to identify small molecule antagonists of the progesterone receptor (PR) signaling pathway - cell viability counter screen (AID 1346798); also: nearly all actives have a fitted effect of over 50% in size
- EXPERIMENTAL CONTEXT: PR-UAS-bla HEK293T viability, CellTiter-Glo luminescence, 16 h; series mostly up to 92.4 µM
Results filed as inconclusive are left out. Activity calls are given as the source filed them. Calls come from the whole dose curve; as a rule, active = well fitted cell-killing curve with a large enough effect in the repeat runs; inconclusive = weak or mixed curves, or effect the other way; inactive = no such curve, though single readings can be large or run the other way.
// allowed return values: active, inactive

// below: answered compounds
compound="COC(=O)C1=C(C)NC(C)=C(C(=O)OCCCN2CCC(c3ccccc3)(c3ccccc3)CC2)C1c1cccc([N+](=O)[O-])c1 (centres undefined)" assigned_category=active
compound=CCCCCCCC/C=C\CCCCCCCC(=O)N(C)CC(=O)O assigned_category=active
compound=CCCCCCCOC(=O)c1ccccc1C(=O)OCCCCCCC assigned_category=inactive
compound=O=C(O)CCCCCCC(=O)O assigned_category=inactive
compound=CCOC(OCC)C(=O)c1ccccc1 assigned_category=inactive
compound=CC1(C)C(=O)N(CO)C(=O)N1CO assigned_category=inactive
compound="O=C1NC2CCCCN2C12CCN(CCCN1c3ccccc3CCc3ccc(Cl)cc31)CC2 (centres undefined)" assigned_category=active
compound=O=Cc1ccc(F)cc1 assigned_category=inactive

Input: Just curious, what result did CC(C)=CCCC(C)CCOC(=O)C(C)C (centres undefined) get here?
Output: inactive

Input: Which outcome was entered for the compound CCN(CC)CCOc1ccc(C(O)(Cc2ccc(Cl)cc2)c2ccc(C)cc2)cc1 (centres undefined) in this test?
Output: active

Input: Could you check what this test reported for Cc1cc(=O)[nH]c(=O)[nH]1 ?
Output: inactive

Input: Per the assay record, what outcome was assigned to CC1=CCC(=O)O1 ?
Output: inactive

Input: Recorded test call requested for CCOC(=O)COc1ccc(C)cc1
Output: inactive

Input: # lookup: test call for CS(C)(=O)=O
Output: inactive

Input: How did this test come out for Cc1cccc(N(C)C)c1 ?
Output: inactive

Input: Look up the recorded call for Clc1ccccc1CN1CCc2sccc2C1 in this test.
Output: inactive

Input: How was O=C1c2c(O)ccc([N+](=O)[O-])c2C(=O)c2c([N+](=O)[O-])ccc(O)c21 classified in this test?
Output: active

Input: Per the assay record, what outcome was assigned to [O]=[Zr] ?
Output: inactive

---

- PROCEDURE TEXT: qHTS assay to identify small molecule antagonists of the constitutive androstane receptor (CAR) signaling pathway - cell viability counter screen (AID 1224837); also: nearly all actives have a fitted effect of over 45% in size
- EXPERIMENTAL CONTEXT: HepG2-CYP2B6-hCAR viability, CellTiter-Fluor, 23 h, co-treated with 50 nM CITCO; series mostly up to 92.4 µM
Inconclusive results are not listed. Active and inactive are the calls of the source. Calls come from the whole dose curve; as a rule, active = well fitted cell-killing curve with a large enough effect in the repeat runs; inconclusive = weak or mixed curves, or effect the other way; inactive = flat fitted curve, though single readings scatter.
Lab note: assign the record to one of true (1) (active), false (0) (inactive)

compound=Cc1ccc(O)cn1 assigned_category="false (0)"
compound=CCC(C)(C)c1cc(O)c(C(C)(C)CC)cc1O assigned_category="false (0)"
compound=CCCCCCCC(=O)OCC assigned_category="false (0)"
compound=CCOC(OCC)C(=O)c1ccccc1 assigned_category="false (0)"
compound=COCC(=O)O[C@]1(CCN(C)CCCc2nc3ccccc3[nH]2)CCc2cc(F)ccc2[C@@H]1C(C)C assigned_category="true (1)"

Input: Field: outcome | Entry: O=C(Oc1ccccc1)c1cccc(C(=O)Oc2ccccc2)c1
Output: false (0)

Input: What outcome does the record of this test show for CC1CCCCC1 ?
Output: false (0)

Input: // outcome(item) with item = CCOC(=O)COc1ccc(C)cc1
Output: false (0)

Input: What classification did CCOC(=O)[C@@](C)(N)Cc1ccc(O)c(O)c1 end up with in this test?
Output: false (0)

Input: Outcome? Cc1cccc(C)n1
Output: false (0)

Input: For this compound, state the assay outcome: Nc1ncnc2c1ncn2[C@@H]1O[C@H](COP(=O)(O)O)[C@@H](O)[C@H]1O
Output: false (0)

Input: Which result was noted for this compound in the test: NCCCC(O)(P(=O)(O)O)P(=O)(O)O
Output: false (0)

Input: Hi, sorry to bother you, what did the test record for CC(C)(C)c1cc(/C=C2\SC(=N)NC2=O)cc(C(C)(C)C)c1O ?
Output: false (0)

Input: Hello, I am checking results. What call was entered for O=C1NCCN1CCN1CCC(c2cn(-c3ccc(F)cc3)c3ccc(Cl)cc23)CC1 ?
Output: true (1)

Input: Which outcome did this test record for the compound Cc1cnccn1 ?
Output: false (0)

Input: // outcome(item) with item = CCOC(=O)CC(C)O (configuration not stated)
Output: false (0)

Input: What outcome does the record of this test show for CCc1cccc(C)c1 ?
Output: false (0)
